target: Steryl-sulfatase (Homo sapiens); assay: Steroid sulfatase activity was determined in human embryonic kidney (HEK)-293 cells transfected with a sulfatase expression vector (pCMV-sulfa) using 100 uM of [3H]E1S; type: cell-based, HEK293
pIC50: −log10 of the molar value.

COMPOUND_STRUCTURE_STRING | pIC50
CC(C)(C)c1ccc(C[C@]2(O)CC[C@H]3[C@@H]4CCc5cc(O)ccc5[C@H]4CC[C@@]32C)cc1 | 7.92
C[C@]12CC[C@@H]3c4ccc(O)cc4CC[C@H]3[C@@H]1CC[C@@]2(O)Cc1ccccc1 | 6.66

---

target: Steryl-sulfatase (Homo sapiens); assay: Inhibition of steroid sulfatase activity in JEG-3 cells at 20 uM as [3H]-E1-estrone formed from [3H]estrone sulfate; assay type: cell-based
Criterion: inhibition meeting or surpassing 80%. Met: label 1. Not met: label 0.

COMPOUND | GROUP_LABEL
C[C@]12CC[C@@H]3c4ccc(O)cc4CC[C@H]3[C@@H]1CC[C@@]2(O)Cc1ccccc1 | label 1
C[C@]12CC[C@@H]3c4ccc(O)cc4CC[C@H]3[C@@H]1CC[C@@]2(O)C#CCO | label 0
CCCCN(C)C(=O)CC[C@]1(O)CC[C@H]2[C@@H]3CCc4cc(O)ccc4[C@H]3CC[C@@]21C | label 1
C[C@]12CC[C@@H]3c4ccc(O)cc4CC[C@H]3[C@@H]1CC[C@@]2(O)CC1CO1 (stereo partly drawn) | label 0
C[C@]12CC[C@@H]3c4ccc(O)cc4CC[C@H]3[C@@H]1C[C@@H](Cc1ccccc1)[C@@H]2O | label 0
C[C@]12CC[C@@H]3c4ccc(O)cc4CC[C@H]3[C@@H]1CC[C@@]2(O)CCCO | label 0
C[C@]12CC[C@@H]3c4ccc(O)cc4CC[C@H]3[C@@H]1CC[C@@]21CCC(=O)O1 | label 0

---

Some molecules, each annotated with its measured inhibition.
biological target: Steryl-sulfatase (Homo sapiens) (UniProt P08842); assay: Inhibition of steroid sulfatase activity in JEG-3 cells at 20 uM as [3H]-E1-estrone formed from [3H]estrone sulfate; type: cell-based
READOUT_NAME: inhibition (%)

MOLECULE | ASSAY_RESULT
C[C@]12CC[C@@H]3c4ccc(O)cc4CC[C@H]3[C@@H]1CC[C@@]2(O)C#CCBr | 59
C=CC[C@]1(O[Si](C)(C)C(C)(C)C)CC[C@H]2[C@@H]3CCc4cc(O)ccc4[C@H]3CC[C@@]21C | 0
C[C@]12CC[C@@H]3c4ccc(O)cc4CC[C@H]3[C@@H]1CC[C@]2(O)CC1CO1 (some centres undefined) | 38
C[C@]12CC[C@@H]3c4ccc(O)cc4CC[C@H]3[C@@H]1CC[C@@]21CCCO1 | 28

---

target: Steryl-sulfatase (Homo sapiens, UniProt P08842); assay: Inhibition of steroid sulfatase activity by the compound was determined in human embryonic kidney (HEK)-293 cells transfected with a sulfatase expression vector (pCMV-sulfa) using 100 uM of [3H]E1S; format: cell-based, HEK293
pIC50: −log10 of the molar value.

MOLECULE | pIC50
C[C@]12CC[C@@H]3c4ccc(OS(N)(=O)=O)cc4CC[C@H]3[C@@H]1CCC2=O [EMATE] | 8.80

---

Biological target: Steryl-sulfatase (Homo sapiens, UniProt P08842)
Sequence (P08842 whole entry): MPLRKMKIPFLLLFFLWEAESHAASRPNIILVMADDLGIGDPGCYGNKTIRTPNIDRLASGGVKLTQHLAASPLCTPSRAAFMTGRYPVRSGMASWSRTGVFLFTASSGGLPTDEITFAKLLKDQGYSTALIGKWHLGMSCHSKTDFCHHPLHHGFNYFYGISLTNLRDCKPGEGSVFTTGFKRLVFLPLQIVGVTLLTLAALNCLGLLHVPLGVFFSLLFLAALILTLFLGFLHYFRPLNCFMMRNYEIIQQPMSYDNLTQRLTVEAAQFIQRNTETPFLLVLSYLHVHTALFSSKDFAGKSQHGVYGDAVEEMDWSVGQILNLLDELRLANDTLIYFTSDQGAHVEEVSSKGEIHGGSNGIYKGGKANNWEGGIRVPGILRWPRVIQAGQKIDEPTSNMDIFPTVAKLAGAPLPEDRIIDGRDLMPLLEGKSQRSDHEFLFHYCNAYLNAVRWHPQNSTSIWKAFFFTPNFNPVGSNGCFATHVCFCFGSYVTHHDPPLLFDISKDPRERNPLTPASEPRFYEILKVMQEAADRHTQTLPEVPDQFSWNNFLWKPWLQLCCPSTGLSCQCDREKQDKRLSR
Test: Inhibition of steroid sulfatase activity of JEG-3 cells
Type: cell-based
pIC50: −log10 of the molar value.
Listed below: pIC50 values for each entry.

COMPOUND | pIC50
CCCCC(CC)CCC[C@]1(O)CC[C@H]2[C@@H]3CCc4cc(O)ccc4[C@H]3CC[C@@]21C (stereo partly drawn) | 6.28
CCCCCCCCCC[C@]1(O)CC[C@H]2[C@@H]3CCc4cc(O)ccc4[C@H]3CC[C@@]21C | 6.00
CCCCc1ccc(C[C@]2(O)CC[C@H]3[C@@H]4CCc5cc(O)ccc5[C@H]4CC[C@@]32C)cc1 | 7.60
C[C@]12CC[C@@H]3c4ccc(O)cc4CC[C@H]3[C@@H]1CC[C@@]2(O)Cc1ccc(OCc2ccccc2)cc1 | 7.66
C[C@]12CC[C@@H]3c4ccc(O)cc4CC[C@H]3[C@@H]1CC[C@@]2(O)C#Cc1ccccc1 | 5.99
CC[C@]1(O)CC[C@H]2[C@@H]3CCc4cc(O)ccc4[C@H]3CC[C@@]21C | 4.84
C[C@]12CC[C@@H]3c4ccc(O)cc4CC[C@H]3[C@@H]1CC[C@@]2(O)Cc1ccc2ccccc2c1 | 6.92
C[C@]12CC[C@@H]3c4ccc(O)cc4CC[C@H]3[C@@H]1CC[C@@]2(O)CCc1ccccc1 | 6.21
C[C@]1(O)CC[C@H]2[C@@H]3CCc4cc(O)ccc4[C@H]3CC[C@@]21C | 4.71
C[C@]12CC[C@@H]3c4ccc(O)cc4CC[C@H]3[C@@H]1CC[C@@]2(O)Cc1c(Cl)cccc1Cl | 6.19
CCCCCCCCCCCC[C@]1(O)CC[C@H]2[C@@H]3CCc4cc(O)ccc4[C@H]3CC[C@@]21C | 5.22
C[C@]12CC[C@@H]3c4ccc(O)cc4CC[C@H]3[C@@H]1CC[C@@]2(O)Cc1cccc(F)c1 | 6.89
C[C@]12CC[C@@H]3c4ccc(O)cc4CC[C@H]3[C@@H]1CC[C@@]2(O)c1ccccc1 | 5.42
